Kindly state MCC for each of the entries shown.
Experiment: Cytotoxicity against Chlorocebus aethiops (African green monkey) Vero cells assessed as alteration in cell morphology by microscopy
Assay type: cell-based
Conditions: chlorocebus sabaeus

I am curious: what MCC value has been reported for O=C(N/N=C/c1ccc(Br)cc1)c1cccnc1 ?
> 100 µg/mL

Fill in: MCC of O=C(N/N=C/c1ccc(Cl)cc1)c1cccnc1 is ___
> 100 µg/mL

I have this compound here, O=C(N/N=C/c1ccc(O)cc1)c1cccnc1 , and I need its recorded MCC.
> 100 µg/mL

Name the reported MCC value associated with the compound O=C(N/N=C/c1ccccc1O)c1cccnc1
4 µg/mL

What MCC value was documented for this compound, O=C(N/N=C/c1cccc(Br)c1)c1cccnc1 ?
≥ 100 µg/mL

What measured MCC goes with COc1ccc(OC)c(/C=N/NC(=O)c2cccnc2)c1 ?
> 100 µg/mL

// lookup MCC for O=C(N/N=C/c1ccccc1[N+](=O)[O-])c1cccnc1
> 100 µg/mL

Which MCC is reported for this compound? COc1cc(/C=N/NC(=O)c2cccnc2)ccc1O
> 100 µg/mL

Which measured MCC value corresponds to O=C(N/N=C/c1ccccc1Cl)c1cccnc1 ?
> 100 µg/mL

Name the reported MCC value associated with the compound O=C(N/N=C/c1ccccc1Br)c1cccnc1
> 100 µg/mL

I would be grateful if you could share the reported MCC for O=C(N/N=C/c1ccc(F)cc1)c1cccnc1 .
> 100 µg/mL
